# Tested system: T1, EcSufS, untagged (wild type) (Escherichia coli, UniProt P77444 1-406, PLP (pyridoxal 5'-phosphate) cofactor)
# T1 construct: EcSufS, cysteine desulfurase SufS of Escherichia coli, UniProt P77444; Untagged version used for crystallography and with the EcSufE variants; In samples with cysteine the active site cysteine is thought to carry a persulfide; also called SufSA; SufSB
# T1 sequence: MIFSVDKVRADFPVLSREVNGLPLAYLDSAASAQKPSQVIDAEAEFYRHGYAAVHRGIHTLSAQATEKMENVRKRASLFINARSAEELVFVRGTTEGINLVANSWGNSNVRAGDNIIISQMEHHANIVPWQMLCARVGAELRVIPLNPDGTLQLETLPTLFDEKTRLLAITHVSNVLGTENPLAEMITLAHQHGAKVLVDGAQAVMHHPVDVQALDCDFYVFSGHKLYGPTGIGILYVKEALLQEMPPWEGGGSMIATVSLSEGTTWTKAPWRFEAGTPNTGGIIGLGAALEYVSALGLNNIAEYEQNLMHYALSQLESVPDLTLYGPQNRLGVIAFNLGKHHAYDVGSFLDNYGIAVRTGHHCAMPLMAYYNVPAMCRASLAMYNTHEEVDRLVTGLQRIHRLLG
# Assay procedure: fluorescence polarisation; 100 nM BODIPY-FL-labeled EcSufE titrated with EcSufS; 50 mM Mops pH 8.0, 150 mM NaCl, 0.1 mg/ml bovine serum albumin, 25 °C, 30 min; absence of cysteine; apparent KD
# Measurement conditions: both partners purified

# Binder, Units text, Kd
data = [
    ("BODIPY-FL-labeled T116A EcSufE in the C51A/E107C background (natural protein, Escherichia coli, BODIPY-FL maleimide label (labeling efficiency 60 to 80%), EcSufE of Escherichia coli, UniProt P76194, with C51A, E107C and T116A; also called T116A SufE; source: E. coli BL21(DE3)Δsuf, pET21, purified, labeled with BODIPY-FL maleimide) MALLPDKEKLLRNFLRCANWEEKYLYIIELGQRLPELRDEDRSPQNSIQGAQSQVWIVMRQNAQGIIELQGDSDAAIVKGLIAVVFILYDQMTPQDIVNFDVRPWFCKMALTQHLAPSRSQGLEAMIRAIRAKAAALS", "nM", 2300),
]
